tested on: TK-10 renal; assay: NCI tumour cell line growth inhibition, 48 h
The entries below are paired with their reported GI50.

COMPOUND: COc1ccc(C2NCCc3c2[nH]c2ccccc32)cc1CN1CCN(c2ccc(F)cc2)CC1 (stereo not given)
TARGET DESC: TK-10 renal
VALUE REPORTED: 3.2 µM

COMPOUND: CCC(=O)OC1CCn2c1nc1c2C(=O)C(C)=C(N2CC2)C1=O (stereo not given)
TARGET DESC: TK-10 renal
VALUE REPORTED: 0.496 µM

COMPOUND: O=C(Oc1ccc([N+](=O)[O-])cc1)N1CCN(Cc2cccc(Oc3ccccc3)c2)CC1
TARGET DESC: TK-10 renal
VALUE REPORTED: > 75.9 µM

COMPOUND: COc1ccc2cc(C(=O)/C=C/c3cccc(Cl)c3Cl)ccc2c1
TARGET DESC: TK-10 renal
VALUE REPORTED: 18.6 µM

COMPOUND: COc1cc(/C=C/C(=O)c2cc(F)c(Cl)cc2Cl)cc(OC)c1OC
TARGET DESC: TK-10 renal
VALUE REPORTED: 31 µM

COMPOUND: COc1cc2cc(Oc3ccc(NC(=O)Nc4ccccc4)cc3)c(C)nc2cc1OCCN1CCCCC1
TARGET DESC: TK-10 renal
VALUE REPORTED: 8.3 µM

So for `Cc1cc(S(=O)(=O)Nc2nc3ccsc3c(=O)n2Cc2ccco2)c(S)cc1Cl` , the logged GI50 turned out to be > 100 µM

So for `O=c1cccc(C#Cc2ccccc2)o1` , the logged GI50 turned out to be 6.06 µM

So for `O=C1/C(=C/c2ccccc2)SC(=Nc2ccccc2)N1Nc1ccccc1` , the logged GI50 turned out to be 36.5 µM

So for `Cn1ccc(=Nc2ccc(NC(=O)c3ccc(N=c4ccn(C)c5ccc([N+](=O)[O-])cc45)cc3)cc2)cc1` , the logged GI50 turned out to be > 100 µM

---

test system: SK-MEL-2 melanoma; experiment: NCI tumour cell line growth inhibition, 48 h
EXPERIMENTAL ENDPOINT: TGI

The cases that follow already have their TGI on record.
COMPOUND: CC1C=C(OC(=O)c2ccccc2)C(=O)C(n2cc(F)c(=O)n(C(=O)c3ccccc3)c2=O)O1 (centres undefined)
TGI: > 100 µM
--
COMPOUND: N#CC1C(=O)Nc2sc(C(=O)c3ccc(Br)cc3)c(N)c2C12CCCCC2 (centres undefined)
TGI: 37.7 µM
--
COMPOUND: FC(F)(F)c1ccc(C=NC23CC4CC(CC(C4)C2)C3)cc1
TGI: > 100 µM

So for Oc1ccc(-c2nc3cc(C(F)(F)F)ccc3n2CC2CCCN3CCCCC23)cc1 (centres undefined) , the logged TGI turned out to be 27.9 µM

So for `COC1=CC(=O)C(O)=C(C[C@@]2(C)[C@@H]3CCC[C@H](COC(=O)CCCCCNC(=O)OC(C)(C)C)[C@@]3(C)CC[C@@H]2C)C1=O` , the logged TGI turned out to be > 10 µM

So for C=C1C(=O)OC2/C=C(\C)C(O)CC(O)C(C)(O)CC(OC(=O)/C(C)=C/C)C12 (centres undefined) , the logged TGI turned out to be > 100 µM

So for `Cc1ccc(C(=O)CC(Cl)=C(Cl)Cl)cc1` , the logged TGI turned out to be > 100 µM

So for COC(=O)C1=C(C(=O)OC)C23C=CC=CC24C(C(=O)OC)=C(C(=O)OC)C4C1C3 (centres undefined) , the logged TGI turned out to be > 100 µM

So for Oc1ccc2c(c1)OCC(O)(c1ccccc1O)C2 (centres undefined) , the logged TGI turned out to be > 100 µM
